Biological target: gB-1 (Human herpesvirus 1, UniProt P10211)
Experiment: Luminex competition: inhibition of binding of BMPC-23 human IgG to gB-1
Design: species or system HSV-1
Conditions: Table 3 summary
quantity: Competition with BMPC-23

molecule="HSV010-13: gB-1 specific mouse monoclonal IgG; IgH SEQ ID NO: 52, IgL SEQ ID NO: 54 (antibody, V domains shown, HSV010-13 heavy chain; HSV010-13 light chain) VH: QVQLQQPGAELVKPGASVKLSCKASGYTFTSYWIHWVKQGPGQGLEWIGMIHPNSGITHYNEKFKTKATLTVDKSSSTAYMQLSSLTSEDSAVCYCARGSSSGSAWFAYWGQGTLVTVSAA VL: DIQMTQSSSYLSESLGGRVTITCKASDHINNWLAWYQQKPGNAPRLLISGATSLETGVPSRFSGSGSGKDYTLSITSLQTEDVATYYCQQYWSSPLTFGAGTKLELKR" quantity="Competition with BMPC-23" result=Weak
molecule="HSV010-9: gB-1 specific mouse monoclonal IgG; IgH SEQ ID NO: 48, IgL SEQ ID NO: 50 (antibody, V domains shown, HSV010-9 heavy chain; HSV010-9 light chain) VH: QVQLQQPGAELVKPGASVKLSCKSSGYTFTSYWMHWVKQRPGQGLEWIGMIHPNSGITHYNEKFKTKATLTVDKSSSTAYMQLSSLTSEDSAVSYCARGSNSGSAWFAYWGQGTLVTVSAA VL: DIQMTQSSSYLSVSLGGRVTITCKASDHINNWLAWYQQKPGNAPRLLISGATSLETGVPSRFSGSGSGKDYTLSITSLQTEDVATYYCQQYWSTPLTFGAGTKLELKR" quantity="Competition with BMPC-23" result=Weak
